The values you see were collected from ChEMBL document CHEMBL4321805.

- SYSTEM UNDER TEST: mTORC2 (Homo sapiens)
- EXPERIMENTAL DETAILS: Inhibition of mTORC2 in human A2058 cells assessed as reduction in PKB phosphorylation at S473 residues incubated for 1 hr by Western blot analysis
pIC50: −log10 of the molar value.
MEASURE NAME: pIC50

Sample answers from the record:
>>> df
                              smiles_record  measure_name  data_value
0  CC1(C)COCCN1c1nc(-c2ccc(N)nc2)nc2c1C[C@H]1COCCN21         pIC50        5.88
1  Nc1cc(C(F)(F)F)c(-c2nc(N3CCCCC3)c3c(n2)N2CCOC[C@H]2C3)cn1         pIC50        5.68
2  Nc1ccc(-c2nc(N3CC4CCC(C3)O4)c3c(n2)N2CCOC[C@H]2C3)cn1         pIC50        6.68
3  Nc1cc(C(F)F)c(-c2nc(N3C4CCC3COC4)nc(N3C4CCC3COC4)n2)cn1         pIC50        6.72
4  Nc1cc(C(F)(F)F)c(-c2nc(N3CCCCC3)c3c(n2)N2CCOC[C@@H]2C3)cn1         pIC50        4.66
5  C[C@H]1COCCN1c1nc(-c2ccc(N)nc2)nc2c1C[C@H]1COCCN21         pIC50        6.38
6  Cc1cc(N)ncc1-c1nc2c(c(N3CCOC[C@H]3C)n1)C[C@@H]1COCCN21         pIC50        5.81
7  Nc1ccc(-c2nc(N3CCOCC3)c3c(n2)N2CCOC[C@@H]2C3)cn1         pIC50        6.71
8  COC(OC)c1nc(N)ncc1-c1nc2c(c(N3CCOC[C@H]3C)n1)C[C@@H]1COCCN21         pIC50        6.27
9  Nc1cc(C(F)(F)F)c(-c2nc(N3CCOCC3)c3c(n2)N2CCCC[C@H]2C3)cn1         pIC50        6.39

P = C[C@@H]1COCCN1c1nc(-c2ccc(N)nc2)nc2c1C[C@@H]1COCCN21
Q = Nc1ccc(-c2nc(N3CC4CCC(C3)O4)c3c(n2)N2CCOC[C@@H]2C3)cn1
Would you mind telling me which has the lower recorded pIC50 between P and Q ? Write down the label attached to your selection. Q

a = Nc1ccc(-c2nc(N3C4CCC3COC4)c3c(n2)N2CCOC[C@@H]2C3)cn1
b = Nc1ccc(-c2nc(N3CCOCC3)nc3c2C[C@H]2COCCN32)cn1
Sort a and b by pIC50 descending and give the first. Lab note: record the label of whichever item you select. a
(a: 6.41, b: 5.73)
